Target: T1, full length PEAK3 (PEAK3^FL, residues 1-473), from insect cells (human, UniProt Q6ZS72 1-473, phosphoserine at S69; biotin (EZ-Link NHS-PEG4-Biotin, 1:1 molar ratio))
T1 construct: Immobilised as the complex with insect cell 14-3-3ε,ζ
T1 sequence (looked up): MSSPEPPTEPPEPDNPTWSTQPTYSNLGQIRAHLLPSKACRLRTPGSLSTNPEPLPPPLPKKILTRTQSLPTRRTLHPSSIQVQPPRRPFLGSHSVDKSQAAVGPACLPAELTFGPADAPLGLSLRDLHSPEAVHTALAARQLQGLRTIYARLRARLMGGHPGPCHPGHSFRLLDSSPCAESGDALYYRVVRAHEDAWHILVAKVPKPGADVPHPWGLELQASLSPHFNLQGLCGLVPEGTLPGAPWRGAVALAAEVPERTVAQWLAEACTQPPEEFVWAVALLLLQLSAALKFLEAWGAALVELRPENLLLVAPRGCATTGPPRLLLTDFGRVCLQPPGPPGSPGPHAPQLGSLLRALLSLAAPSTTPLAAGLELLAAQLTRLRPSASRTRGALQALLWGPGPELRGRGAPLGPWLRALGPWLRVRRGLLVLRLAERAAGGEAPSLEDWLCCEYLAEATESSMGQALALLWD
Assay: SPR; biotinylated PEAK proteins (with or without Src phosphorylation) captured with a biotin CAPture kit, CrkII NSH3 as analyte; Biacore 8K+, 20 °C, HBS-TP (150 mM NaCl); 1 M NaCl regeneration; steady state
Conditions: both partners purified
metric: pKd
Value format note: pKd is -log10 of concentration (mol/L); just state the number.

Which pKd is listed for CrkII N-terminal SH3 domain (CrkII^NSH3, residues 134-191) (domain or fragment, human, UniProt P46108-1 134-191, looked up, human CrkII NSH3 domain, UniProt P46108-1, residues 134-191; Amine coupled to a CM5 chip in a2; analyte in a4; in the syringe in ITC) AEYVRALFDFNGNDEEDLPFKKGDILRIRDKPEEQWWNAEDSEGKRGMIPVPYVEKYR ?
5.41
